Taken from patent US20060127324A1.

Test: Release of anti-microbial agent from chewing gum composition after 10 minutes of chewing
Type: physicochemical
Conditions: chewing gum compositions
readout label: Release Rate (%) After 10 Minutes of Chewing

Below: 2 molecules and their reported Release Rate (%) After 10 Minutes of Chewing.
[
  {
    "molecule": "CC(C)[C@@H]1CC[C@@H](C)CC1=O",
    "experimental value": 10.4
  },
  {
    "molecule": "CC1CCC(C(C)C)C(O)C1 (stereo not shown)",
    "experimental value": 9
  }
]

[1] CC12CCC(CC1)C(C)(C)O2
[2] COC(=O)c1ccccc1O [Methyl Salicylate]
Query string: Recorded Release Rate (%) After 10 Minutes of Chewing values differ for 1 and 2 ; which one is higher? Answer with the label corresponding to your selection.
Result string: 1
(1: 19.9%, 2: 8.9%)
